B1: MNAT1 (parent)
chain: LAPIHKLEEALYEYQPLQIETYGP

Variants of: B1
assay: protein stability index of a GFP-peptide fusion (GPS, HEK-293T) (PSI 1-6); higher = more stable;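 also: lentivirally expressed fusions sorted by FACS into six bins by GFP to DsRed ratio, PSI derived from sequencing read proportions per bin multiplied by bin number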
runParameters: c terminus: a fixed tail appended

{"columns": ["biopolymerSequence", "protein stability index"],
 "data": [
  ["LAPIHKLCEALYEYQPLQIETYGP", 3.13],
  ["LAPIHKLEEALYEYQPLQIENYGP", 2.5],
  ["LWPIHKLEEALYEYQPLQIETYGP", 2.44],
  ["LAPIHKLEEALYEYQKLQIETYGP", 1.92],
  ["LAPIHKLEEALYEYQPMQIETYGP", 2.33],
  ["LAPIHKLEEALYFYQPLQIETYGP", 2.29],
  ["LAPIHKLEEALYEYTPLQIETYGP", 2.2],
  ["LNPIHKLEEALYEYQPLQIETYGP", 2.23],
  ["LAPIHKLEEATYEYQPLQIETYGP", 2.57],
  ["LAPIHKLENALYEYQPLQIETYGP", 1.78],
  ["LAPIHKLEEALYEYQPLWIETYGP", 1.96],
  ["WAPIHKLEEALYEYQPLQIETYGP", 2.56],
  ["LAPHHKLEEALYEYQPLQIETYGP", 2.63],
  ["LAPIHKLTEALYEYQPLQIETYGP", 2],
  ["LAPIHKLEMALYEYQPLQIETYGP", 2.34],
  ["LAPIHKLEEALYEYQPLQIATYGP", 1.32],
  ["LAPIHKLEEILYEYQPLQIETYGP", 2.1],
  ["LAPIHKLEEALYEKQPLQIETYGP", 3.53],
  ["LAYIHKLEEALYEYQPLQIETYGP", 2.18],
  ["LAPIHKLEEALYEYQPLQIETYGK", 2.29],
  ["LAPIHKLEEAKYEYQPLQIETYGP", 3.38]
]}
